Reported Residual turnover by item:
system: HPPD polypeptides (wild-type SEQ ID NO:1 and mutants); conditions: in the presence of Cmpd. 1, 15 μM inhibitor, high substrate concentration; total change in signal normalized to no inhibitor
# unit: % | format: bare number

>>> resultvalue("30 (protein, mutant HPPD polypeptide) MADLYENPMGLMGFEFIEFASPTPGTLEPIFEIMGFTKVATHRSKNVHLYRQGEINLILNNEPNSIASYFAAEHGPSVCGMAFRVKDSQKAYNRALELGAQPIHIDTGPMELNLPAIKGIGGAPLYLIDRFGEGSSIYDIDFVYLEGVERNPVGAGLKVIDHLTHNVYRGRMVYWANFYEKLFNFREARYFDIKGEYTGLTSKAMSAPDGMIRIPLNEESSKGAGQIEEFLMQFNGEGIQHVAFLTDDLVKTWDALKKIGMRFMTAPSDSYYEMLEGRLPDHGEPVDQLQARGILLDGSSVEGDKRLLLQIFSETLMGPVFFEFIQRKGDDGFGPHSFKVLFESKERDQVRRGVLTAD")
65

# context switch: different molecule, same Residual turnover
Data request, read-out Residual turnover, for 22 (protein, mutant HPPD polypeptide) MADLYENPMGLMGFEFIEFASPTPGTLEPIFEIMGFTKVATHRSKNVHLYRQGEINLILNNEPNSIASYFAAEHGPSVCGMAFRVKDSQKAYNRALELGAQPIHIDTGPMELNLPAIKGIGGAPLYLIDRFGEGSSIYDIDFVYLEGVERNPVGAGLKVIDHLTHNVYRGRMVYWANFYEKLFNFREARYFDIKGEYTGLTSKAMSAPDGMIRIPLNEESSKGAGQIEEFLMQFNGEGIQHVAFLTDDLVKTWDALKKIGMRFMTAPPDTYYEMLEGRLPDHGEPVDQLQARGILLDGSSVEGDKRLLLQIFSETLMGPVFFEFIQRKGDDGFGPHSFKVLFESIERDQVRRGVLTAD 53
